Task for the reader: assign each of the following binders its reported EC50.
# SYSTEM: T1, human HHLA2 expressed on transfected cells (300.19 mouse pre-B cells; CHO cells) (human, UniProt Q9UM44 23-414)
# T1 construct: also called B7-H7; B7H7
# T1 sequence: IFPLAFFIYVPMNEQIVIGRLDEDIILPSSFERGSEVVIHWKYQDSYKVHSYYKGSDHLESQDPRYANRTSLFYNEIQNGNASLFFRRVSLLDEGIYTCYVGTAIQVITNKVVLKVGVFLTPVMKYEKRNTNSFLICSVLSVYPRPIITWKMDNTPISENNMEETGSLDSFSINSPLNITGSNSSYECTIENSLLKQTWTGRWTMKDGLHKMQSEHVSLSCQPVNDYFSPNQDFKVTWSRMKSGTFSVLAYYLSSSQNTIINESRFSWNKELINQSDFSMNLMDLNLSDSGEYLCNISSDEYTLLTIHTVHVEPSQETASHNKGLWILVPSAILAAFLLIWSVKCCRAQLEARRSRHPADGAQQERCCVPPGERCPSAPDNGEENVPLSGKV
# PROTOCOL_DETAILS: flow cytometry, mAb titrated on HHLA2-transfected 300.19 pre-B cells, PE goat anti-mouse IgG
# Protocol: HHLA2 mAb cell binding and receptor blockade experiments were then performed. […] HHLA2 mAb binding to transfected 300.19 cells was detected with PE-labeled goat anti-mouse IgG (H+L). […] HHLA2-mIgG2a binding to TMIGD2 or KIR3DL3 transfected 293T cells was detected with a PE labeled Fab2 goat anti-mIgG2a antibody. […]
The response must be a number in µg/mL with no trailing unit.

Q: Could you share which EC50 value was measured for anti-HHLA2 monoclonal antibody 2G2 (antibody, IgG1, V domains shown, also called 499.5.2G2.13.3.10; MHC2561) VH: EVMLVESGGGLVKPGGSLKLSCAVSGLTFSSYAMSWVRQTPEKRLEWVATISSGGSHTYYPDSVKGRFIISRDNAKNTLYLQMNSLRSEDTAMYYCTRLGRAFDYWGQGTTLTVSS VL: DIVMTQSHKFMSTSVGDRVSITCKASQDVSTAVAWYQQKPGQSPKVLIYWASTRHTGVPDRFTGSGSGTDFTLTISSVQAEDLALYYCQQDYSTPWTFGGGTKLEIK ?
Ans: 0.21

Q: Could you share which EC50 value was measured for anti-HHLA2 monoclonal antibody 6D10 (antibody, IgG1, V domains shown, also called 6DI0; 499.5.6D10.11.11.7) VH: EVQLVETGGGLVQPKGSLKLSCAASGFTFNTNVMNWVRQAPGKGLEWVARIRTKTNNYATYYADSVKDRFTIFRDDSQSILYLQMNNLKTEDTAMYYCVGAMDYWGQGTSVTVSS VL: DIVLTQSPASLAVSLGQRATISCRASESVDNYGISFMHWYQQKPGQPPKLLIYRASNLKSGIPARFSGSGSRTDFTLTINPVETGDVATYYCQQSSKDPPTFGTGTKLELK ?
Ans: 22.5
